target: UniProt Q06187; experiment: Degradation of BTK protein in Namalwa cells (Western blot; DC50, Dmax); details: BTK degradation; cell line not given
Listed here are molecules together with their documented DC50.

# example entries with known answers
{"columns": ["molecule", "DC50"],
 "data": [
  ["NC(=O)c1c(-c2ccc(Oc3ccccc3)cc2)nn2c1NCC[C@H]2C1CCN(C2CCN(C(=O)N3CCN(c4ccc5c(c4)CN(C4CCC(=O)NC4=O)C5=O)CC3)CC2)CC1 (some centres unmarked)", "> 50 nM"],
  ["NC(=O)c1c(-c2ccc(Oc3ccccc3)cc2)nn2c1NCC[C@H]2C1CCN(C2CCN(CC3CCN(c4ccc5c(c4)C(=O)N(C4CCC(=O)NC4=O)C5=O)CC3)CC2)CC1 (some centres unmarked)", "10 to 50 nM"],
  ["Nc1ncnc2c1c(-c1ccc(Oc3ccccc3)cc1)nn2C1CCN(CC2CCN(CCN3CCN(c4ccc5c(c4)CN(C4CCC(=O)NC4=O)C5=O)CC3)CC2)CC1 (centres unmarked)", "10 to 50 nM"]
]}

Item under review: Nc1ncnc2c1c(-c1ccc(Oc3ccccc3)cc1)nn2C1CCN(C2CCN(CC3CCN(c4ccc5c(c4)C(=O)N([C@@H]4CCC(=O)NC4=O)C5=O)CC3)CC2)CC1 [Compound 213a] . Reported DC50?
< 10 nM

Please give the measured DC50 for this molecule: NC(=O)c1c(-c2ccc(Oc3ccccc3)cc2)nn2c1NCCC2C1CCN(C(=O)N2CCC(CC3CCN(c4ccc5c(c4)C(=O)N(C4CCC(=O)NC4=O)C5=O)CC3)CC2)CC1 (centres unmarked)
< 10 nM

###

Measured Dmax values are reported for all entries that follow.
target: BTK (Homo sapiens, UniProt Q06187); assay: BTK degradation, DC50 and Dmax of Table 1 (cell line not given); assay type: cell-based; set-up: endogenous in cells
Sequence (Q06187 whole entry): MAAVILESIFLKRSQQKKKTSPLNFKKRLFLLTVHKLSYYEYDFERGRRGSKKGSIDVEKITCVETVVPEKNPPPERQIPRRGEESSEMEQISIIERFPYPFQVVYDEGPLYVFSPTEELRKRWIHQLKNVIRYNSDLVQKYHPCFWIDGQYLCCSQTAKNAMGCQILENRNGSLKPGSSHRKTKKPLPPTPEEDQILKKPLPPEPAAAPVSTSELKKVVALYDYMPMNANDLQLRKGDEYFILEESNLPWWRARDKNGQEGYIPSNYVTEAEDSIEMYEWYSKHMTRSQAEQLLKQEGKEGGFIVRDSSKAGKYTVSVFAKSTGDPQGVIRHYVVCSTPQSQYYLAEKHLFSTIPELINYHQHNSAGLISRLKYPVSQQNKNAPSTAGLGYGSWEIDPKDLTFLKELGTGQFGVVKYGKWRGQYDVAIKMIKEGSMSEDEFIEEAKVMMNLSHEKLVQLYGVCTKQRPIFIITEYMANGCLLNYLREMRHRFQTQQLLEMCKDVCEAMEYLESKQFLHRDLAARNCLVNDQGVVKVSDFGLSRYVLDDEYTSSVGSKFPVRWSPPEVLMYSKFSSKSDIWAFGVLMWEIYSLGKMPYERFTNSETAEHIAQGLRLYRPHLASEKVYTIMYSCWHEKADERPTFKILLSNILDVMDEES

Past entries and their recorded results:
{"columns": ["molecule", "Dmax"],
 "data": [
  ["Nc1ncnc2c1c(-c1ccc(Oc3ccccc3)cc1)nn2C1CCN(CCOCCN2CCC(c3ccc4c(c3)C(=O)N(C3CCC(=O)NC3=O)C4=O)CC2)CC1 (stereo not drawn)", "> 90%"],
  ["Nc1ncnc2c1c(-c1ccc(Oc3ccccc3)cc1)nn2[C@@H]1CCCN(C2CCN(C(=O)N3CCC(N4CCC(c5ccc6c(c5)C(=O)N(C5CCC(=O)NC5=O)C6=O)CC4)CC3)CC2)C1 (stereo partly drawn)", "> 75%"],
  ["Nc1ncnc2c1c(-c1ccc(Oc3ccccc3)cc1)nn2[C@@H]1CCCN(C2CCN(CCN3CCC(c4ccc5c(c4)C(=O)N(C4CCC(=O)NC4=O)C5=O)CC3)CC2)C1 (stereo partly drawn)", "> 90%"]
]}

Look up Dmax with BTK (Homo sapiens, UniProt Q06187) for this molecule: Nc1ncnc2c1c(-c1ccc(Oc3ccccc3)cc1)nn2C1CCN(C(=O)N2CCN(CCN3CCN(c4ccc5c(c4)CN(C4CCC(=O)NC4=O)C5=O)CC3)CC2)CC1 (stereo not drawn)
> 90%

Quick check: Dmax on BTK (Homo sapiens, UniProt Q06187), item Nc1ncnc2c1c(-c1ccc(Oc3ccccc3)cc1)nn2C1CCCN(CCOCCOCCN2CCN(c3ccc4c(c3)C(=O)N(C3CCC(=O)NC3=O)C4=O)CC2)C1 (stereo not drawn) ?
> 90%

Form: Entry = Nc1ncnc2c1c(-c1ccc(Oc3ccccc3)cc1)nn2[C@@H]1CCCN(CC2CCN(CCN3CCC(c4ccc5c(c4)C(=O)N(C4CCC(=O)NC4=O)C5=O)CC3)CC2)C1 (stereo partly drawn) | System = BTK (Homo sapiens, UniProt Q06187) | Dmax = ____
> 90%

Query for BTK (Homo sapiens, UniProt Q06187): what Dmax does the record show for Nc1ncnc2c1c(-c1ccc(Oc3ccccc3)cc1)nn2C1CCN(C(=O)N2CCN(CCN3CCN(c4ccc5c(c4)C(=O)N(C4CCC(=O)NC4=O)C5=O)CC3)CC2)CC1 (stereo not drawn) ?
> 90%

Entry Nc1ncnc2c1c(-c1ccc(Oc3ccccc3)cc1)nn2C1CCN(C(=O)N2CCN(CCCC3CCN(c4ccc5c(c4)C(=O)N(C4CCC(=O)NC4=O)C5=O)CC3)CC2)CC1 (stereo not drawn) , system BTK (Homo sapiens, UniProt Q06187): what Dmax was measured?
> 75%

For BTK (Homo sapiens, UniProt Q06187), provide Dmax of Nc1ncnc2c1c(-c1ccc(Oc3ccccc3)cc1)nn2[C@@H]1CCCN(CC2CCN(CCN3CCN(c4ccc5c(c4)C(=O)N(C4CCC(=O)NC4=O)C5=O)CC3)CC2)C1 (stereo partly drawn) please.
> 90%

So what Dmax did Nc1ncnc2c1c(-c1ccc(Oc3ccccc3)cc1)nn2[C@@H]1CCCN(C(=O)N2CCC(CCN3CCC(c4ccc5c(c4)C(=O)N(C4CCC(=O)NC4=O)C5=O)CC3)CC2)C1 (stereo partly drawn) get with BTK (Homo sapiens, UniProt Q06187)?
> 90%

Look up Dmax with BTK (Homo sapiens, UniProt Q06187) for this molecule: Nc1ncnc2c1c(-c1ccc(Oc3ccccc3)cc1)nn2C1CCN(CCOCCC2CCN(c3ccc4c(c3)C(=O)N(C3CCC(=O)NC3=O)C4=O)CC2)CC1 (stereo not drawn)
> 90%

Lab request: please report Dmax under test system BTK (Homo sapiens, UniProt Q06187) for Nc1ncnc2c1c(-c1ccc(Oc3ccccc3)cc1)nn2[C@@H]1CCCN(C2CCN(C(=O)N3CCN(CCN4CCN(c5ccc6c(c5)C(=O)N(C5CCC(=O)NC5=O)C6=O)CC4)CC3)CC2)C1 (stereo partly drawn)
> 90%

Please state recorded Dmax (tested on BTK (Homo sapiens, UniProt Q06187)) of Nc1ncnc2c1c(-c1ccc(Oc3ccccc3)cc1)nn2[C@@H]1CCCN(C2CCN(C(=O)N3CCC(c4ccc5c(c4)CN(C4CCC(=O)NC4=O)C5=O)CC3)CC2)C1 (stereo partly drawn)
> 50%

So what Dmax did Nc1ncnc2c1c(-c1ccc(Oc3ccccc3)cc1)nn2[C@@H]1CCCN(C2CCN(CCN3CCN(c4ccc5c(c4)C(=O)N(C4CCC(=O)NC4=O)C5=O)CC3)CC2)C1 (stereo partly drawn) get with BTK (Homo sapiens, UniProt Q06187)?
> 75%

Requested read-out Dmax, target or system BTK (Homo sapiens, UniProt Q06187), entry Nc1ncnc2c1c(-c1ccc(Oc3ccccc3)cc1)nn2[C@@H]1CCCN(C(=O)N2CCN(CCN3CCC(c4ccc5c(c4)C(=O)N(C4CCC(=O)NC4=O)C5=O)CC3)CC2)C1 (stereo partly drawn)
> 90%

Can you look up Dmax on BTK (Homo sapiens, UniProt Q06187) for Nc1ncnc2c1c(-c1ccc(Oc3ccccc3)cc1)nn2[C@@H]1CCCN(C2CCN(C(=O)N3CCC(CN4CCN(c5ccc6c(c5)C(=O)N(C5CCC(=O)NC5=O)C6=O)CC4)CC3)CC2)C1 (stereo partly drawn) ?
> 90%

Find the measured Dmax: item Nc1ncnc2c1c(-c1ccc(Oc3ccccc3)cc1)nn2C1CCN(C(=O)N2CCC(CN3CCN(c4ccc5c(c4)CN(C4CCC(=O)NC4=O)C5=O)CC3)CC2)CC1 (stereo not drawn) , target or system BTK (Homo sapiens, UniProt Q06187).
> 90%

Please state recorded Dmax (tested on BTK (Homo sapiens, UniProt Q06187)) of Nc1ncnc2c1c(-c1ccc(Oc3ccccc3)cc1)nn2[C@@H]1CCCN(C(=O)N2CCN(CC3CCN(c4ccc5c(c4)CN(C4CCC(=O)NC4=O)C5=O)CC3)CC2)C1 (stereo partly drawn)
> 90%

Lab note: need Dmax with BTK (Homo sapiens, UniProt Q06187) for entry Nc1ncnc2c1c(-c1ccc(Oc3ccccc3)cc1)nn2[C@@H]1CCCN(C(=O)N2CCC(c3ccc4c(c3)CN(C3CCC(=O)NC3=O)C4=O)CC2)C1 (stereo partly drawn) , please look it up.
> 50%

Notebook entry, BTK (Homo sapiens, UniProt Q06187) assay: Dmax of Nc1ncnc2c1c(-c1ccc(Oc3ccccc3)cc1)nn2C1CCN(C(=O)N2CCC(CCN3CCC(c4ccc5c(c4)CN(C4CCC(=O)NC4=O)C5=O)CC3)CC2)CC1 (stereo not drawn) = ?
> 90%

Query for BTK (Homo sapiens, UniProt Q06187): what Dmax does the record show for Nc1ncnc2c1c(-c1ccc(Oc3ccccc3)cc1)nn2C1CCN(CCOCCN2CCN(c3ccc4c(c3)C(=O)N(C3CCC(=O)NC3=O)C4=O)CC2)CC1 (stereo not drawn) ?
> 90%

###

molecular target: UniProt:Q06187; assay: Degradation of BTK protein in Namalwa cells (Western blot; DC50, Dmax); details: read-out: Dmax (BTK degradation)
Measured Dmax, listed per entry for reference.

{"columns": ["compound", "Dmax"],
 "data": [
  ["Nc1ncnc2c1c(-c1ccc(Oc3ccccc3)cc1)nn2C1CCN(CC2CN(CC3CCN(c4ccc5c(c4)C(=O)N(C4CCC(=O)NC4=O)C5=O)CC3)C2)CC1 (centres unmarked)", "> 90%"]
]}

Tell me the measured Dmax of Nc1ncnc2c1c(-c1ccc(Oc3ccccc3)cc1)nn2C1CCN(CC2CCN(CCCC(=O)N3CCC(c4ccc5c(c4)CN(C4CCC(=O)NC4=O)C5=O)CC3)CC2)CC1 (centres unmarked) , please.
> 90%

Requested read-out: Dmax. Entry: Nc1ncnc2c1c(-c1ccc(Oc3ccccc3)cc1)nn2C1CCN(CC2CCN(CC3CN(c4ccc5c(c4)C(=O)N(C4CCC(=O)NC4=O)C5=O)C3)CC2)CC1 (centres unmarked)
> 90%

Entry Nc1ncnc2c1c(-c1ccc(Oc3ccccc3)cc1)nn2C1CCN(C(=O)C2CN(C3CCN(c4ccc5c(c4)CN(C4CCC(=O)NC4=O)C5=O)CC3)C2)CC1 (centres unmarked) : reported Dmax = ?
> 90%

Dmax for Nc1ncnc2c1c(-c1ccc(Oc3ccccc3)cc1)nn2C1CCN(CCCN2CCC(CN3CCC(c4ccc5c(c4)oc(=O)n5C4CCC(=O)NC4=O)CC3)C2)CC1 (centres unmarked) ?
> 75%

Source of measurements: patent US12139492B2
